target: T1, dog CD47 (dog); assay: flow cytometry on dog RBCs, apparent affinity by non-linear fit of median fluorescence
T1 construct: whole, on cells; also called CD47 on dog RBCs
Entries and their measured Kd follow.
Give the value, in units of nM, as a plain number.

[[record]]
binder = "Vx10 (antibody, V domains shown, Murine mAb; also called murine anti-CD47 mAb Vx10) VH: QVQLQQSGAELAKPGASVKMSCKASGYTFTNYWIHWIKQRPGQGLEWIGYIDPNTVYTDYNQRFEDKATLTADKSSNTAYMQLNSLTSEDSAVYYCSRGGKRGVDSWGQGTSVTVSS VL: DVVMTQTPLSLPVSLGDQASISCRSSQSLENSNGDTYLNWYLQKPGQSPQLLIYRVSNRFSGVLDRFSGSGSGTDFTLQISRVEAEDLGVYFCLQVSHVPWTFGGGTNLEIK"
experimental_value = 0.714


Task: Entry Vx12 (antibody, V domains shown, Murine mAb; also called murine anti-CD47 mAb Vx12) VH: QVQLLQSGAQLVKPGTSMKLSCKASGYTFTNYFLYWVKQRPGQGLEWIGDINPNAGSTNLNERFKSKATLTVDKSSSTAYLQLSGLTSEDSAVYYCTRGGYTMDYWGQGTSVTVSS VL: DVVMTQIPLSLPVSLGDQASISCRSSQSLVHSNGNTYLHWYLQKPGQSPKLLIYKVSNRFSGVPDRFSGSGSGTDFTLKISRVEAEDLGVYFCSQSTHVPRTFGGGTKLEIK : reported Kd = ?
Output: 0.101

Task: Entry Vx13 (antibody, V domains shown, Murine mAb; also called murine anti-CD47 mAb Vx13) VH: EVQLQQSGPEVVKPGASVRISCKASDYTFTNYYIHWVRQRPGQGLEWIGWIYPGNNNNKYNEKFKGKATLTEDTSSSTAYMQLSSLTSEDSAVYFCARGGYTMDYWGQG VL: DVLMTQTPLSLPVSLGDQASISCRSSQSLVHSNGNTYLHWYLQKPGQSPNLLIYKVSNRFSGVPDRFSGSGSGTDFTLKINRVETEDLGIYFCSQSTHVLTFGAG : reported Kd = ?
Output: 1.62

Reference for the values: patent US20210324075A1
